Origin of values: patent US10570117B2

Test: Solubility in gastric juice or intestinal juice model fluid (precipitation method using DMSO)
Format: physicochemical
Details: pH 1.2, simulated gastric fluid, kinetic from dmso stock, 1st fluid for Disintegration Test of Japanese Pharmacopoeia (pH: 1.2), room temperature, read-out: Solubility (μg/mL) 1st fluid
Parameter solubility at 24 h: see the listing below.
Report the value in µg/mL with no unit label.

# example entries with known answers
COc1cc(OCc2cnc(C)cn2)ccc1-c1c[nH]c(-c2ccc(Cl)nc2)n1 | 7.5
CCc1cc(OCc2ncc(C(F)(F)F)cc2F)ccc1-c1cnc(-c2ccc(F)nc2)[nH]1 | 104
COc1cc(OCc2ncc(C)cc2C)ccc1-c1c[nH]c(-c2ccc(F)nc2)n1 | 80.2
COc1cc(OCc2ncc(C(F)(F)F)cc2F)ccc1-c1[nH]c(-c2ccc(F)nc2)nc1C(F)(F)F | 3.1
COc1cc(OCc2ncc(C(F)(F)F)cc2F)ccc1-c1[nH]c(CCC(F)(F)F)nc1Cl | 96.3

// COc1cc(-c2c[nH]c(C34CC5CC(CC(C5)C3)C4)n2)ccc1OCc1ccc(C(F)(F)F)cn1 : solubility at 24 h value = 93.5

// COc1cc(-c2cnc(CCC(F)(F)F)[nH]2)ccc1OCc1ncc(C(F)(F)F)cc1F : solubility at 24 h value = 1.1

// COc1cc(-c2[nH]c(-c3ccc(F)nc3)nc2Cl)ccc1OC(C)c1ncc(C(F)(F)F)cc1F (stereo not shown) : solubility at 24 h value = 28

// COc1cc(OCc2ncc(C(F)(F)F)cc2F)ccc1-c1[nH]c(-c2ccc(F)nc2)nc1F : solubility at 24 h value = 4.7

// COc1cc(-c2c[nH]c(-c3ccc(C(F)(F)F)nc3)n2)ccc1OCc1ccc(C(F)(F)F)cn1 : solubility at 24 h value = 15.2

----------
Parameter melting point: see the listing below.

COc1cc(OCc2ncc(C(F)(F)F)cc2F)ccc1-c1[nH]c(-c2ccc(F)nc2)nc1Cl | 150 to 152 °C
COc1cc(OCc2ncccc2C#N)ccc1-c1c[nH]c(-c2ccc(Cl)nc2)n1 | 193 to 195 °C
COc1cc(OCc2ccc(C(F)(F)F)cn2)ccc1-c1nc(-c2ccc(F)nc2)n(C)c1Cl | 158 to 160 °C (dec.)

// switching to the query compound
// COc1cc(OCn2cccn2)ccc1-c1c[nH]c(-c2ccc(F)nc2)n1 : melting point value = 172 to 175 °C

----------
Test: Solubility in gastric juice or intestinal juice model fluid (precipitation method using DMSO)
Format: physicochemical
Details: pH 6.8, kinetic from dmso stock, 2nd fluid for Disintegration Test of Japanese Pharmacopoeia (pH: 6.8), room temperature, read-out: Solubility (μg/mL) 2nd fluid
attribute_measured: solubility at 24 h

# example entries with known answers
CCSc1ccc(-c2nc(Cl)c(-c3ccc(OCc4ccc(C(F)(F)F)nc4)cc3OC)[nH]2)cn1 | < 0.4 µg/mL
COc1cc(OCc2ncc(C(F)(F)F)cc2F)ccc1-c1[nH]c(C(C)(C)C)nc1Cl | < 0.3 µg/mL
COc1cc(OCc2ccncc2C(F)(F)F)ccc1-c1cnc(-c2ccc(Cl)nc2)[nH]1 | < 0.3 µg/mL
COc1cc(OCn2cccn2)ccc1-c1[nH]c(C2CCC(F)(F)CC2)nc1Cl | < 7.5 µg/mL
COc1cc(OCc2ccc(C(F)(F)F)nc2)c(C)cc1-c1cnc(C2CCC(F)(F)CC2)[nH]1 | < 1.7 µg/mL

// COc1c(OCc2ccc(C(F)(F)F)cn2)ccc(-c2[nH]c(C3CCC(F)(F)CC3)nc2Cl)c1OC : solubility at 24 h value = < 9.5 µg/mL

// COc1cc(OCc2cnccn2)ccc1-c1nc(-c2ccc(Cl)nc2)[nH]c1Cl : solubility at 24 h value = < 0.3 µg/mL

// COc1cc(OCc2ncc(Cl)cc2F)ccc1-c1[nH]c(-c2ccc(F)nc2)nc1Br : solubility at 24 h value = 0.4 µg/mL

// COc1cc(OCc2ccc(C(F)(F)F)cn2)ccc1-c1cn(C)c(-c2ccc(F)nc2)n1 : solubility at 24 h value = 0.9 µg/mL

// CCc1cc(OCc2ncc(C(F)(F)F)cc2F)ccc1-c1[nH]c(-c2ccc(F)nc2)nc1Cl : solubility at 24 h value = < 0.4 µg/mL
